- System: Balb/c mice
- PROTOCOL DETAILS: In vivo expression by IV, 0.05 mg/kg luciferase RNA-LNPs, IVIS luminescence
- CONDITION SET: Formulation No. 001, RNA No. 331; female Balb/c mice, 0.05 mg*kg−1 intravenous, 24-hours post injection
MEASUREMENT KIND: Whole body (p/s) (Mean)
Give the value in p/s but do not write p/s after it.

Worked examples follow.
[[record]]
molecule = "CCCCC/C=C\\C/C=C\\CCCCCCCCOC(=O)C(COC(=O)NCCN1CCCCCC1)NC(=O)OCCCCCCCCOC(=O)C(CCCCCC)CCCCCCCC (centres unmarked)"
tested_target = "Balb/c mice"
quantity_unit = "p/s"
meas_value = "1.86E+09"

[[record]]
molecule = "CCCCCCCCC(CCCCCC)C(=O)OCCCCCCCCOC(=O)NC(COC(=O)NCCN1CCCCCC1)C(=O)OCCCCCCCCOC(=O)C(CCCCCC)CCCCCCCC (centres unmarked)"
tested_target = "Balb/c mice"
quantity_unit = "p/s"
meas_value = "1.04E+09"

[[record]]
molecule = "CCCCCCCCC(CCCCCC)C(=O)OCCCCCCCCOC(=O)NC(COC(=O)NCCN1CCCCCC1)C(=O)OCCCCCCCCCCC(=O)OCCCCCC (centres unmarked)"
tested_target = "Balb/c mice"
quantity_unit = "p/s"
meas_value = "1.02E+09"


Exercise: Any idea what Whole body (p/s) (Mean) came out for CCCCC/C=C\C/C=C\CCCCCCCCOC(=O)NC(COC(=O)NCCN1CCCCCC1)C(=O)OCCCCCC(=O)OCC(CCCCCCCC)CCCCCCCCCC (centres unmarked) on Balb/c mice?
Solution: 1.17E+09

Exercise: Any idea what Whole body (p/s) (Mean) came out for CCCCC/C=C\CCOC(=O)CCCCCOC(=O)C(COC(=O)NCCN1CCCCCC1)NC(=O)OCCCCCCCCOC(=O)C(CCCCCC)CCCCCCCC (centres unmarked) on Balb/c mice?
Solution: 2.15E+09
